- targetSystem: M42F-ecDHFR (Escherichia coli, UniProt P0ABQ4, M42F)
- testDescription: Ligand-binding assay, tryptophan fluorescence titration
reportedMetric: pKd
Answers are plain numbers, as −log10 of the molar value.

Incoming: Retrieve pKd measured for "NC(=O)C1=CN([C@@H]2O[C@H](COP(=O)(O)OP(=O)(O)OC[C@H]3O[C@@H](n4cnc5c(N)ncnc54)[C@H](OP(=O)(O)O)[C@@H]3O)[C@@H](O)[C@H]2O)C=CC1" and print it.
Outgoing: 4.47
